As shown below, each of these compounds has a reported IC50 value.
Target: bovine pancreatic PLA2 (Bos taurus)
Construct: from tissue; host or cells: bovine pancreas
Sequence (P00593 23-145): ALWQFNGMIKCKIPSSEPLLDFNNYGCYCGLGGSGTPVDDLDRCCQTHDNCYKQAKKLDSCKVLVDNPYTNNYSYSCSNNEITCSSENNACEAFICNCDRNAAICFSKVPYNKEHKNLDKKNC
Assay: Phospholipase A2 (PLA2) activity, enzyme assay
Type: biochemical
Conditions: Table 20; from semilog plot of % inhibition vs concentration; substrate 1-stearoyl-2-[C^14]-arachidonyl-phosphatidylcholine; 37° C., pH 8, 20 min; read-out: IC50
Answer with a number only, understood to be in µM.

Input line: Indicate its recorded IC50; the compound in question is O=S(=O)(Nc1ccccc1)c1cccc2c(Cl)cccc12 [compound 43, reference compound]
Output line: 190

Input line: Indicate its recorded IC50; the compound in question is `O=C(Nc1ccc(-c2ccccc2)cc1)[C@@H]1CCCN1S(=O)(=O)c1ccccc1`
Output line: 520

Input line: Indicate its recorded IC50; the compound in question is `O=C(Nc1ccc(-c2ccccc2)cc1)[C@H](Cc1ccccc1)NS(=O)(=O)c1ccccc1`
Output line: 310
